system: Homo sapiens; test: Evaluation of pharmacokinetic parameters for Valproic acid following single oral administration of Divalproex Sodium tablets or capsules.; format: ADME, organism-based; conditions: in vivo, dose 250 to 1000 mg, dosed compound id 430, dosed compound name DIVALPROEX SODIUM, regimen Single dose, tissue Plasma
outcome measure: t1/2

Look up t1/2 with Homo sapiens for this compound: CCCC(CCC)C(=O)O
9 to 16 h
